system_name: human 11β-HSD1 (Homo sapiens)
Construct: expressed in transfected cells; host or cells: CHO cells (microsomes)
Sequence (P28845 whole entry): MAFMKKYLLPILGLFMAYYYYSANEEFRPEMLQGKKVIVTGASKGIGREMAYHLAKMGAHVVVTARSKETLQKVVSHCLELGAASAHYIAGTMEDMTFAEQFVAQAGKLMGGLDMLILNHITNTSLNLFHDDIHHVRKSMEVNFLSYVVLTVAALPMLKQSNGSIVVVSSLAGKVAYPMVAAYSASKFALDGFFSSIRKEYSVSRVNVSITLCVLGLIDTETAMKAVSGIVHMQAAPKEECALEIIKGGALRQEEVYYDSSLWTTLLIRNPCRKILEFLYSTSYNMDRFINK
measurement_notes: Biological Test Example 1: inhibition of microsomal preparation of 11β-HSD1 (SPA)
Format: biochemical
protocol_conditions: microsomes from CHO cells overexpressing human 11β-HSD1; read-out: IC50 Range
For each record, write down the corresponding IC50.

Look up IC50 for the entries below, preserving their order.
1. C[C@@H](c1ccc(Br)cc1)N1CC[C@](CCCNS(C)(=O)=O)(c2ccc(F)cc2)NC1=O [Example 19]
2. C=CC[C@]1(c2ccc(F)cc2)CCN([C@@H](C)c2ccc(Br)cc2)C(=O)N1C (single isomer, unassigned) [Example 3 Isomer 1]
3. C[C@@H](c1ccc(-c2ccc(F)cc2F)cc1)N1CC[C@](CCCO)(c2ccc(F)cc2)NC1=O (single isomer, unassigned) [Example 7 Isomer 1]
4. C[C@@H](C1CCCCC1)N1CC[C@](CCCO)(c2ccccc2)N(C)C1=O [Example 22]
5. C[C@@H](c1ccc(-c2ccc(F)cc2F)cc1)N1CC[C@](CC(O)CO)(c2ccc(F)cc2)NC1=O (single isomer, unassigned) [Example 8 Isomer 2]
6. C[C@@H](c1ccc(-c2ccc(F)cc2)cc1)N1CC[C@](CCCO)(c2ccc(F)cc2)NC1=O (single isomer, unassigned) [Example 10 Isomer 1]

## Result
< 100 nM
< 100 nM
< 100 nM
> 100 nM
< 100 nM
< 100 nM

----------
system_name: human 11β-HSD1 (Homo sapiens)
Construct: expressed in transfected cells; host or cells: CHO cells (microsomes)
measurement_notes: Biological Test Example 1: inhibition of microsomal preparation of 11β-HSD1 (SPA)
Assay type: biochemical
protocol_conditions: at 100 nM; read-out: Average % inhibition at 100 nM
result_type: inhibition at 0.1 µM (%)
One number for each entry, in %.

Look up inhibition at 0.1 µM for the entries below, preserving their order.
1. C[C@@H](c1ccc(-c2ccc(F)cc2)cc1)N1CC[C@](CCCO)(c2ccc(F)cc2)NC1=O (single isomer, unassigned) [Example 10 Isomer 1]
2. C[C@@H](c1ccc(Br)cc1)N1CC[C@@](CCCO)(c2ccc(F)cc2)N(C)C1=O (single isomer, unassigned) [Example 11 Isomer 2]
3. C[C@@H](c1ccc(Cl)cc1)N1CC[C@](CCCO)(c2ccc(F)cc2)NC1=O [Example 13]

## Result
1. 102
2. 26.1
3. 96.1

----------
For each record, write down the corresponding inhibition at 0.1 µM.
system_name: human 11β-HSD1 (Homo sapiens)
Construct: expressed in transfected cells; host or cells: CHO cells (microsomes)
measurement_notes: Biological Test Example 1: inhibition of microsomal preparation of 11β-HSD1 (SPA)
Assay type: biochemical
protocol_conditions: read-out: Average % inhibition at 100 nM
One number for each entry, in %.

These solved cases illustrate the format of a correct answer.
C=CC[C@]1(c2ccc(F)cc2)CCN([C@@H](C)c2ccc(Br)cc2)C(=O)N1C (single isomer, unassigned) [Example 3 Isomer 1]	51.2
C[C@@H](c1ccc(Br)cc1)N1CC[C@](CCCNS(C)(=O)=O)(c2ccc(F)cc2)NC1=O	96
C=CC[C@@]1(c2ccc(F)cc2)CCN([C@@H](C)c2ccc(Br)cc2)C(=O)N1C (single isomer, unassigned) [Example 3 Isomer 2]	60.5

Field: next compound
## Task Field request: inhibition at 0.1 µM | item: C=CC[C@@]1(c2ccc(F)cc2)CCN([C@@H](C)c2ccc(Br)cc2)C(=O)N1 (single isomer, unassigned) [Example 2 Isomer 2]
## Result 69.5

----------
system_name: human 11β-HSD1 (Homo sapiens)
Construct: expressed in transfected cells; host or cells: CHO cells (microsomes)
measurement_notes: Biological Test Example 1: inhibition of microsomal preparation of 11β-HSD1 (SPA)
Type: biochemical
protocol_conditions: at 100 nM; read-out: Average % inhibition at 100 nM
For each record, write down the corresponding inhibition at 0.1 µM.
Give bare numbers, in %.

Look up inhibition at 0.1 µM for the entries below, preserving their order.
1. C[C@@H](c1ccc(Br)cc1)N1CC[C@](CCCO)(c2ccc(F)cc2)N(C)C1=O (single isomer, unassigned) [Example 11 Isomer 1]
2. COc1ccc([C@H](C)N2CC[C@](CCO)(c3ccc(F)cc3)NC2=O)cc1
3. COc1ccc([C@H](C)N2CC[C@](CCCO)(c3ccc(F)cc3)NC2=O)cc1
4. C[C@@H](c1ccc(-c2ccc(F)cc2F)cc1)N1CC[C@](CCCO)(c2ccc(F)cc2)NC1=O (single isomer, unassigned) [Example 7 Isomer 1]
5. C[C@@H](c1ccc(-c2ccc(F)cc2F)cc1)N1CC[C@](CC(O)CO)(c2ccc(F)cc2)NC1=O (single isomer, unassigned) [Example 8 Isomer 1]
6. C[C@@H](c1ccc(-c2ccc(F)cc2)cc1)N1CC[C@@](CCCO)(c2ccccc2)NC1=O (single isomer, unassigned) [Example 14 Isomer 2]

## Result
1: 64.4; 2: 94.3; 3: 96.1; 4: 94.8; 5: 96.3; 6: 58

The values you see were collected from patent US9079861B2.
